Biological target: Type-2 angiotensin II receptor (Rattus norvegicus, UniProt P35351)
Sequence (P35351 whole entry): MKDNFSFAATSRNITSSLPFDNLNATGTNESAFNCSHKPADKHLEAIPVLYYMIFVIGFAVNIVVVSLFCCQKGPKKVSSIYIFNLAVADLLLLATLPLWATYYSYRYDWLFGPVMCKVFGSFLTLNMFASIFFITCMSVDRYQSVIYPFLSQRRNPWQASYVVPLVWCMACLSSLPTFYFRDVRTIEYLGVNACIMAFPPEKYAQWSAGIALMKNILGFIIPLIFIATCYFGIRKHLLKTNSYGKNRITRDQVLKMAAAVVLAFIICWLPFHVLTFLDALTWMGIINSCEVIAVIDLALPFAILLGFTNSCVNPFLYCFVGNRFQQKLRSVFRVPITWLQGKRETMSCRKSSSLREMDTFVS
Assay: Inhibitory concentration against Angiotensin II receptor type 2 with [125I]-[Sar1,Ile8]Ang II

# compound-smiles, test-target, result-unit, IC50
data = [
    ("CCCCOC(=O)NS(=O)(=O)c1ccccc1-c1ccc(Cn2c(CCC)nc(CC)c2C(C)=O)c(F)c1", "Type-2 angiotensin II receptor (Rattus norvegicus, UniProt P35351)", "nM", 10),
    ("CCCCOC(=O)NS(=O)(=O)c1ccccc1-c1ccc(Cn2c(CCC)nc(CC)c2C(=O)OC)c(Cl)c1", "Type-2 angiotensin II receptor (Rattus norvegicus, UniProt P35351)", "nM", 37),
    ("CCCc1nc(CC)c(C(=O)OC)n1Cc1ccc(-c2ccccc2S(=O)(=O)NC(=O)OCCC(C)C)cc1F", "Type-2 angiotensin II receptor (Rattus norvegicus, UniProt P35351)", "nM", 40),
]

----------
pIC50 values by entry
biological target: Type-2 angiotensin II receptor (Rattus norvegicus); test: Inhibition of [125I]-[Sar1,Ile8]Ang II binding at rat angiotensin II (type 2) receptor.
pIC50: −log10 of the molar value.
attribute-measured: pIC50

# compound-smiles, observed-measurement
records = [
    ("CCCc1nc(CC)c(C(=O)CCN(C(C)=O)c2cccnc2)n1Cc1ccc(-c2ccccc2S(=O)(=O)NC(=O)OCCC(C)C)cc1F", 8.52),
    ("CCCCOC(=O)NS(=O)(=O)c1ccccc1-c1ccc(Cn2c(CCC)nc(CC)c2C(=O)CCN(C(=O)c2ccccc2)c2ccccc2)c(F)c1", 9.74),
    ("CCCc1nc(CC)c(C(=O)CCN(C(=O)c2cccnc2)c2cccnc2)n1Cc1ccc(-c2ccccc2S(=O)(=O)NC(=O)OCCC(C)C)cc1F", 9.66),
    ("CCCc1nc(CC)c(C(=O)CCN(C(=O)c2ccncc2)c2cccnc2)n1Cc1ccc(-c2ccccc2S(=O)(=O)NC(=O)OCCC(C)C)cc1F", 9.00),
    ("CCCc1nc(CC)c(C(=O)CCN(C(=O)c2ccncc2)c2ccccc2)n1Cc1ccc(-c2ccccc2S(=O)(=O)NC(=O)OCCC(C)C)cc1F", 10.00),
    ("CCCCOC(=O)NS(=O)(=O)c1ccccc1-c1ccc(Cn2c(CCC)nc(CC)c2C(=O)CCN(C(=O)CCC)c2ccccc2)c(F)c1", 9.82),
    ("CCCc1nc(CC)c(C(=O)OC)n1Cc1ccc(-c2ccccc2S(=O)(=O)NC(=O)OCCC(C)C)cc1F", 8.52),
]

meta.source: ChEMBL document CHEMBL1128745
